# assayed target: UniProt:P23739
# Sequence (P23739 1-1013 limits assumed): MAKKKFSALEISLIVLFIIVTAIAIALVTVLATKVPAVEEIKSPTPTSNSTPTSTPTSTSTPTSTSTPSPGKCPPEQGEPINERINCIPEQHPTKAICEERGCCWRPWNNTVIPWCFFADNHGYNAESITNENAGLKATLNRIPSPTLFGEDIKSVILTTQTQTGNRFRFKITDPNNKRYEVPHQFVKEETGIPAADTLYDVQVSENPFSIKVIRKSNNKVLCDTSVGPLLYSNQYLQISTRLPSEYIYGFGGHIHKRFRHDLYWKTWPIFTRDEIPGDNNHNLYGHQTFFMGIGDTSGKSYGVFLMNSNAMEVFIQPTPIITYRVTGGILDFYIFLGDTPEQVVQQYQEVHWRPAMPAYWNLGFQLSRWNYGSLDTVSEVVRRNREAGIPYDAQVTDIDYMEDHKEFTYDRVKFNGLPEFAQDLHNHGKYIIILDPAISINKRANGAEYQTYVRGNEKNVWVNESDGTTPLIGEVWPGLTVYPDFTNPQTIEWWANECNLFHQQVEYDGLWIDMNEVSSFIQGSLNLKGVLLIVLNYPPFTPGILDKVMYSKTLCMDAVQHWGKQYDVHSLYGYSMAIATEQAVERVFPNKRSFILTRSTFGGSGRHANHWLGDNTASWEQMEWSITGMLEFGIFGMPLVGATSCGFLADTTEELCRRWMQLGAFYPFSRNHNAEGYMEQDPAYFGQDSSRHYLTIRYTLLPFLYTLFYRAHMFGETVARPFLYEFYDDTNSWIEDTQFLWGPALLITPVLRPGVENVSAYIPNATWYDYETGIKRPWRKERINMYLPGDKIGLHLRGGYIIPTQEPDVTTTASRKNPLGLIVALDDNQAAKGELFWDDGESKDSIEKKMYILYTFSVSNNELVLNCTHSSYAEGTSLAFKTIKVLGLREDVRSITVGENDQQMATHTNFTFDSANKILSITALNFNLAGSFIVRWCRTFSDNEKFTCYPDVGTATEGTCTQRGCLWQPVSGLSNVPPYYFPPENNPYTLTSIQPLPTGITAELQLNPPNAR
# Sequence (P23739 1014-1841 limits assumed): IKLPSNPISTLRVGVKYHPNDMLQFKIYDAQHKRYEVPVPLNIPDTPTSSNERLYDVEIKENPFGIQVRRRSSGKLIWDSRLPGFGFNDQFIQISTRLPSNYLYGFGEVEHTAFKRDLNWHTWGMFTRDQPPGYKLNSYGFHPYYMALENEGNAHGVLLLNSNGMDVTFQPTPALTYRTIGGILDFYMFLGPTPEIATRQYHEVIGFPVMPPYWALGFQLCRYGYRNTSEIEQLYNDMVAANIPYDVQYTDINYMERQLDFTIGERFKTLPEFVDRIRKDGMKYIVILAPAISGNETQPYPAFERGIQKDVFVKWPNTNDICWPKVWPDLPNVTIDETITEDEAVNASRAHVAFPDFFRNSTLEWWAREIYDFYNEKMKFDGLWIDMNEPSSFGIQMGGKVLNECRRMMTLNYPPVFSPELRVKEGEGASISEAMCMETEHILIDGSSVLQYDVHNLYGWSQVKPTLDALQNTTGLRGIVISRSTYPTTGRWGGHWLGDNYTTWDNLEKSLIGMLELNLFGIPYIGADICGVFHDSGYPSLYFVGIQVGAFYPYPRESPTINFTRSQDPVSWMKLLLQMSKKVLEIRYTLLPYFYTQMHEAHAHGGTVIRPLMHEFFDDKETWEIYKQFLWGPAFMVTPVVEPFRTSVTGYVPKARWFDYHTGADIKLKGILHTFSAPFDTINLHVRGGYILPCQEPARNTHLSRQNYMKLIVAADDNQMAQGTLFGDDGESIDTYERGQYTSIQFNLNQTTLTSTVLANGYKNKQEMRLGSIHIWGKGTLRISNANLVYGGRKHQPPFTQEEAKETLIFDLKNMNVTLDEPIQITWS
# procedure summary: Inhibition of rat intestinal sucrase
# Ki listing for each entry below
readout: Ki

• O=S(=O)([O-])O[C@@H]([C@H](O)[C@H](O)[C@@H](O)CO)[C@H](O)C[S+]1C[C@@H](O)[C@H](O)[C@H]1CO (stereo partly drawn) [KOTALANOL] = 420 nM
• O=S(=O)([O-])O[C@@H](CO)[C@H](O)C[S@+]1C[C@@H](O)[C@H](O)[C@H]1CO [SALACINOL] = 200 nM
• [O-][S+]1CC(O)C(O)C(O)CC(O)CC(O)C(O)C(O)C(O)C1 (stereo not drawn) = 52 nM

These data points were gathered from ChEMBL document CHEMBL1157509.
